Recorded values, source patent US4062973A.

Each entry below lists one item and its recorded LD50 at 336 h value.
# assay procedure: Acute toxicity in white mice after oral application of a single dose
# Assay type: in vivo
# test conditions: mouse, in vivo, observation time 14 days

>  <molecule>
CC(c1ccc(C2CCCCC2)c(Cl)c1)[S+]([O-])CC(=O)N1CCCCC1 (stereo not drawn) [E]

>  <LD50 at 336 h>
> 1000 mg/kg

$$$$
>  <molecule>
CC(c1ccc(C2CCCCC2)cc1)[S+]([O-])CC(=O)O (stereo not drawn) [Compound A]

>  <LD50 at 336 h>
> 1000 mg/kg

$$$$
>  <molecule>
COC(=O)C[S+]([O-])C(C)c1ccc(C2CCCCC2)cc1 (stereo not drawn) [B]

>  <LD50 at 336 h>
> 1000 mg/kg

$$$$

###

# System: mice
# assay procedure: Determination of the prolongation of the bleeding time
# Assay type: in vivo
# test conditions: 10 mgm/kg orally, awake mice; 1 hour; compared with untreated control group
# Protocol: 2. determination of the prolongation of the bleeding time: To determine the effect on the bleeding time, 10 mgm/kg of the test compound were administered orally to awake, unanesthetized mice. After 1 hour, and again after 3 hours, about 0.5 mm from the end of the tail of each animal was cut off, and the exuded blood was carefully soaked up into filter paper every 30 seconds. The number of drops of blood so obtained provided a measure for the bleeding time (5 animals/experiment). […]
Each entry below lists one item and its recorded Prolongation of the bleeding time in % after 1 hour value.
measured endpoint: Prolongation of the bleeding time in % after 1 hour (%)

>  <compound>
COC(=O)C[S+]([O-])C(C)c1ccc(C2CCCCC2)cc1 (stereo not shown)

>  <assayed system>
mice

>  <u>
%

>  <quantitative readout>
117

$$$$
>  <compound>
CC(c1ccc(C2CCCCC2)c(Cl)c1)[S+]([O-])CC(=O)N1CCCCC1 (stereo not shown)

>  <assayed system>
mice

>  <u>
%

>  <quantitative readout>
37

$$$$
>  <compound>
CC(c1ccc(C2CCCCC2)cc1)[S+]([O-])CC(=O)O (stereo not shown)

>  <assayed system>
mice

>  <u>
%

>  <quantitative readout>
300

$$$$
>  <compound>
CCOC(=O)C[S+]([O-])C(C)c1ccc(C2CCCCC2)c(Cl)c1 (stereo not shown)

>  <assayed system>
mice

>  <u>
%

>  <quantitative readout>
49

$$$$
